test system: UACC-257; test: NCI tumour cell line growth inhibition, 48 h
Activity calls are given as the source filed them. Cut-off read from the data, not from the text of the source: active = GI50 up to about 1.1 µM and inactive = higher.
Your reply should match one of these outcome classes. active, inactive

Req: // param item: "CC1(C)N=C(N)N=C(N)N1c1cccc(OCc2cccc([N+](=O)[O-])c2)c1" ; yields the recorded call
Resp: inactive

Req: And for "CC1=C(N2CC2)C(=O)C(CO)=C(N2CC2)C1=O" ?
Resp: active

Req: And for COc1nc(NC2OC(COC(C)=O)C(OC(C)=O)C(OC(C)=O)C2OC(C)=O)c2c(OC(C)=O)cc(=O)oc2n1 (stereo not given) ?
Resp: inactive

Req: And for "CN1CCN(CCCCN2c3ccccc3Sc3cc(N=[N+]=[N-])ccc32)CC1" ?
Resp: inactive

Req: And for "S=c1[nH]nc(Cc2ccccc2)c(=S)[nH]1" ?
Resp: inactive

Req: And for "O=c1[nH][nH]c(=O)n1Cc1ccccc1Cn1c(=O)[nH][nH]c1=O" ?
Resp: inactive

Req: And for "Nc1c(C(=O)c2ccccc2)[nH]c(NCc2ccccc2)c1C(=S)Nc1ccccc1" ?
Resp: inactive

Req: And for "[N-]=[N+]=NCC(=O)c1cnc(O)nc1O" ?
Resp: inactive

Req: And for "O=c1cc(/N=N/c2ccc(O)cc2)[nH]c(=O)[nH]1" ?
Resp: inactive

Req: And for "O=C1CCc2cc3c(cc21)CC1(Cc2cc4c(cc2C1)CCCC4)C3" ?
Resp: inactive
